Data origin, for the record: PubChem BioAssay AID1963984

# System: 233499-124-R-J3-PDC spheroids with HUVEC/MSC, viability
# experiment.summary: Anticancer human tumor 233499-124-R-J3-PDC patient-derived colon adenocarcinoma cell line growth inhibition [PI3K]
# conditions: curve of first compound; second compound 0.0316 µM
pIC50: −log10 of the molar value.
Overview of recorded pIC50 for various compounds

Some entries whose results are on file:
INSERT INTO results (compound, data_value) VALUES
  ('Cn1ncnc1[C@H]1c2n[nH]c(=O)c3cc(F)cc(c23)N[C@@H]1c1ccc(F)cc1 + CC(Nc1ncnc2nc[nH]c12)c1cc2cccc(Cl)c2c(=O)n1-c1ccccc1', '< 7.00'),
  ('C[C@@H](NC(=O)c1ncnc(N)c1Cl)c1ncc(C(=O)Nc2cc(C(F)(F)F)c(Cl)cn2)s1 + COc1c(OCCCN2CCOCC2)ccc2c3n(c(=NC(=O)c4cnc(N)nc4)nc12)CCN3', '< 5.00');

Let us move to another entry and its pIC50.
Please fill in: pIC50 reported for CC(C)NCC(C(=O)N1CCN(c2ncnc3c2C(C)CC3O)CC1)c1ccc(Cl)cc1 (stereo not drawn) + Cc1nc(NC(=O)N2CCCC2C(N)=O)sc1-c1ccnc(C(C)(C)C(F)(F)F)c1 = < 5.00

* * *

# System: 233499-124-R-J3-PDC spheroids with HUVEC/MSC, viability
# experiment.summary: Anticancer human tumor 233499-124-R-J3-PDC cell line growth inhibition [PI3K]; active = viability on the fitted dose curve at most 10% of control; inactive = the rest;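 also: spheroids exposed to agents for seven days before readout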
# conditions: second compound 1 µM; first compound 0.00316 µM
# valid calls are true (active), false (inactive); nothing else

INSERT INTO results (compound, assayed_system, label) VALUES
  ('CC(=O)c1c(C)c2cnc(Nc3ccc(N4CCNCC4)cn3)nc2n(C2CCCC2)c1=O + COc1c(OCCCN2CCOCC2)ccc2c3n(c(=NC(=O)c4cnc(N)nc4)nc12)CCN3', '233499-124-R-J3-PDC spheroids with HUVEC/MSC, viability', 'true'),
  ('CC(C)n1nc(-c2ccc3oc(N)nc3c2)c2c(N)ncnc21 + Cc1nc(NC(=O)N2CCCC2C(N)=O)sc1-c1ccnc(C(C)(C)C(F)(F)F)c1', '233499-124-R-J3-PDC spheroids with HUVEC/MSC, viability', 'false'),
  ('CCN1CCN(Cc2ccc(Nc3ncc(F)c(-c4cc(F)c5nc(C)n(C(C)C)c5c4)n3)nc2)CC1 + COc1c(OCCCN2CCOCC2)ccc2c3n(c(=NC(=O)c4cnc(N)nc4)nc12)CCN3', '233499-124-R-J3-PDC spheroids with HUVEC/MSC, viability', 'true'),
  ('Cn1ncnc1[C@H]1c2n[nH]c(=O)c3cc(F)cc(c23)N[C@@H]1c1ccc(F)cc1 + COc1c(OCCCN2CCOCC2)ccc2c3n(c(=NC(=O)c4cnc(N)nc4)nc12)CCN3', '233499-124-R-J3-PDC spheroids with HUVEC/MSC, viability', 'true');

Now consider the entry below.
Task: Status in this test for CCN1CCN(Cc2ccc(Nc3ncc(F)c(-c4cc(F)c5nc(C)n(C(C)C)c5c4)n3)nc2)CC1 + Cc1nc(NC(=O)N2CCCC2C(N)=O)sc1-c1ccnc(C(C)(C)C(F)(F)F)c1 ?
Output: false
